- Measured on: Replicase polyprotein 1ab (Severe acute respiratory syndrome coronavirus 2)
- Protocol notes: Inhibition of SARS CoV-2 main protease at 50 uM using DABCYL-KTSAVLQSGFRKM-E(EDANS)-NH2 as substrate preincubated for 30 mins followed by substrate addition and measured after 20 mins relative to control
- Measurement conditions: time 50.0 min
Experimental readout: inhibition (%)
Give just the number in %; leave the unit off.

# Query smiles, inhibition, %
rows = [
    ("Cc1c(NC(=S)N/N=C/C(Cl)=C/c2ccc([N+](=O)[O-])cc2)c(=O)n(-c2ccccc2)n1C", 21.2),
    ("O=C(CSc1nnnn1-c1ccccc1)N/N=C/c1ccc(-c2ccccc2C(=O)O)o1", 45.3),
    ("NC(=S)N/N=C/c1ccc(-c2ccncc2)o1", 95.4),
    ("O=C(Cn1c2ccccc2c(=O)c2ccccc21)N/N=C/c1ccc(-c2ccc([N+](=O)[O-])cc2)o1", 30),
    ("NC(=S)N/N=C/c1ccc(-c2ccc(C(=O)O)cc2)o1", 89.4),
]

// switching to the query compound
IN: For the compound shown here, NC(=S)N/N=C/c1ccc(-c2ccc(C(=O)O)c(O)c2)o1 , give the reported inhibition.
OUT: 102

* * *

- Measured on: Replicase polyprotein 1ab (Severe acute respiratory syndrome coronavirus 2, UniProt P0DTD1)
- Protocol notes: Inhibition of SARS CoV-2 main protease using DABCYL-KTSAVLQSGFRKM-E(EDANS)-NH2 as substrate preincubated for 30 mins followed by substrate addition
Experimental readout: IC50
Mention the unit after the number when you answer.

IN: For the compound shown here, NC(=S)N/N=C/c1ccc(-c2ccc(C(=O)O)c(O)c2)o1 , give the reported IC50.
OUT: 6.18 µM

* * *

Each item that follows carries a reported inhibition.
- Measured on: Replicase polyprotein 1ab (Severe acute respiratory syndrome coronavirus 2)
- Protocol notes: Inhibition of SARS CoV-2 main protease at 50 uM using DABCYL-KTSAVLQSGFRKM-E(EDANS)-NH2 as substrate preincubated for 30 mins followed by substrate addition and measured after 20 mins relative to control
- Measurement conditions: time 50.0 min
Give just the number in %; leave the unit off.

# Query smiles, Experimental readout, Observed measurement
data = [
    ("COc1ccc(/N=C2/S/C(=C\\c3ccc(-c4ccc(Cl)c(C(=O)O)c4)o3)C(=O)N2C)cc1", "inhibition", 27.1),
    ("O=C(N/N=C/c1ccc(-c2ccc([N+](=O)[O-])cc2)o1)/C(=C\\c1ccccc1O)NC(=O)c1ccccc1", "inhibition", 38.3),
    ("Nc1nonc1-c1nc2ccccc2n1CC(=O)N/N=C/c1ccc(-c2ccc([N+](=O)[O-])cc2)o1", "inhibition", 30.1),
    ("NC(=S)N/N=C/c1ccc(-c2ccc(F)nc2)o1", "inhibition", 97.4),
    ("O=C(CNc1ccc2ccccc2c1)N/N=C/c1ccc(-c2ccc([N+](=O)[O-])cc2)o1", "inhibition", 23),
]

IN: For the compound shown here, C=CCNC(=S)N/N=C/c1ccc(-c2cc(C(=O)O)cc(C(=O)O)c2)o1 , give the reported inhibition.
OUT: 34.2

IN: For the compound shown here, COCc1c(Br)c(C)nc(OCC(=O)N/N=C/c2ccc(-c3cccc(C(=O)O)c3)o2)c1C#N , give the reported inhibition.
OUT: 32.9

IN: For the compound shown here, NC(=S)N/N=C/c1ccc(-c2ccc(O)c(C(=O)O)c2)o1 , give the reported inhibition.
OUT: 115

* * *

- Measured on: Replicase polyprotein 1ab (Severe acute respiratory syndrome coronavirus 2)
- Protocol notes: Inhibition of SARS CoV-2 main protease at 50 uM using DABCYL-KTSAVLQSGFRKM-E(EDANS)-NH2 as substrate preincubated for 30 mins followed by substrate addition and measured after 20 mins relative to control
- Measurement conditions: time 50.0 min
Each item that follows carries a reported inhibition.

# Query smiles, inhibition
records = [
    ("O=C(O)c1cccc(-c2ccc(/C=c3/sc4nc5ccccc5n4c3=O)o2)c1", "< 20%"),
]

IN: For the molecule shown here, COCc1cc(C)nc(OCC(=O)N/N=C/c2ccc(-c3cccc(C(=O)O)c3)o2)c1C#N , give the reported inhibition.
OUT: 37.3%

IN: For the molecule shown here, Cc1c(NC(=S)NC(=O)c2ccccc2)c(=O)n(-c2ccccc2)n1C , give the reported inhibition.
OUT: < 20%

IN: For the molecule shown here, NC(=S)N/N=C/c1ccc(-c2ccc(C(=O)O)cc2)s1 , give the reported inhibition.
OUT: 95.1%

IN: For the molecule shown here, Cc1ccc(C(=O)NC(=S)Nc2c(C)n(C)n(-c3ccccc3)c2=O)cc1 , give the reported inhibition.
OUT: < 20%

* * *

- Measured on: Replicase polyprotein 1ab (Severe acute respiratory syndrome coronavirus 2)
Experimental readout: pKd
Conceptually, pKd converts a concentration in mol/L into minus its log10.

IN: # value lookup — system Replicase polyprotein 1ab (Severe acute respiratory syndrome coronavirus 2), readout pKd, item Nc1nonc1-c1nc2ccccc2n1CC(=O)N/N=C/c1ccc(-c2cccc(C(=O)O)c2)o1
OUT: 4.56

* * *

Each item that follows carries a reported inhibition.
- Measured on: Replicase polyprotein 1ab (Severe acute respiratory syndrome coronavirus 2) (UniProt P0DTD1)
- Protocol notes: Inhibition of SARS CoV-2 main protease at 50 uM using DABCYL-KTSAVLQSGFRKM-E(EDANS)-NH2 as substrate preincubated for 30 mins followed by substrate addition and measured after 20 mins relative to control
- Measurement conditions: time 50.0 min
Give just the number in %; leave the unit off.

# Compound, Observed measurement
records = [
    ("Cc1c(C(=O)N/N=C/c2ccc(-c3ccc(Cl)c(C(=O)O)c3)o2)sc(N)c1C#N", 35.8),
    ("Nc1nnnn1CC(=O)N/N=C/c1ccc(-c2ccccc2C(=O)O)o1", 34.5),
    ("O=C(O)c1cc(-c2ccc(/C=C3\\NC(=O)N(Cc4ccccc4F)C3=O)o2)ccc1Cl", 53.4),
]

// switching to the query compound
IN: For the compound shown here, NC(=S)N/N=C/c1cccc(-c2ccc(C(=O)O)cc2)c1 , give the reported inhibition.
OUT: 99.2

* * *

Each item that follows carries a reported inhibition.
- Measured on: Replicase polyprotein 1ab (Severe acute respiratory syndrome coronavirus 2) (UniProt P0DTD1)
- Protocol notes: Inhibition of SARS CoV-2 main protease at 50 uM using DABCYL-KTSAVLQSGFRKM-E(EDANS)-NH2 as substrate preincubated for 30 mins followed by substrate addition and measured after 20 mins relative to control
- Measurement conditions: time 50.0 min
Give just the number in %; leave the unit off.

// worked examples, inhibition included
# Query smiles, Endpoint unit, inhibition
rows = [
    ("NC(=S)N/N=C/c1ccc(Cc2ccccc2)o1", "%", 100),
    ("NC(=S)N/N=C/c1ccc(-c2ccc3ccccc3c2)o1", "%", 54.1),
    ("NC(=S)N/N=C/c1ccc(-c2ccccc2)o1", "%", 100),
    ("Cc1cc(C(=O)O)ccc1-c1ccc(/C=N/NC(N)=S)o1", "%", 98.5),
]

IN: For the molecule shown here, Cc1ccc([N+](=O)[O-])cc1-c1ccc(/C=N/NC(=O)Cn2c3ccccc3c(=O)c3ccccc32)o1 , give the reported inhibition.
OUT: 22.5

* * *

- Measured on: Replicase polyprotein 1ab (Severe acute respiratory syndrome coronavirus 2) (UniProt P0DTD1)
- Protocol notes: Inhibition of SARS CoV-2 main protease at 50 uM using DABCYL-KTSAVLQSGFRKM-E(EDANS)-NH2 as substrate preincubated for 30 mins followed by substrate addition and measured after 20 mins relative to control
- Measurement conditions: time 50.0 min
Experimental readout: inhibition (%)
Give just the number in %; leave the unit off.

// worked examples, inhibition included
# Query smiles, inhibition [%]
measured = [
    ("COc1c(C(=O)O)cccc1-c1ccc(/C=N/NC(N)=S)o1", 79.8),
    ("O=C(O)c1ccc(-c2ccc(/C=N/NC(=S)NC3CCCCC3)o2)cc1", 37.3),
    ("NC(=S)N/N=C/c1ccc(-c2cccc(C(=O)O)c2)o1", 85.1),
]

IN: For the compound shown here, O=c1sn(-c2cccc3ccccc23)c(=O)n1Cc1ccccc1 , give the reported inhibition.
OUT: 98.6

* * *

- Measured on: Replicase polyprotein 1ab (Severe acute respiratory syndrome coronavirus 2, UniProt P0DTD1)
- Protocol notes: Inhibition of SARS CoV-2 main protease using DABCYL-KTSAVLQSGFRKM-E(EDANS)-NH2 as substrate preincubated for 30 mins followed by substrate addition and measured after 20 mins
Experimental readout: log10(IC50) (log10 of the value in µM)
Hello, just confirming the data are log10 of IC50 with units of µM.

# Query smiles, log10(IC50)
data = [
    ("NC(=S)N/N=C/c1ccc(-c2ccc([N+](=O)[O-])cc2)o1", 0.99),
]

IN: For the compound shown here, NC(=S)N/N=C/c1cc(-c2ccc(C(=O)O)cc2)co1 , give the reported log10(IC50).
OUT: 1.39

IN: For the compound shown here, NC(=S)N/N=C/c1ccc(-c2cnc3ccccc3c2)o1 , give the reported log10(IC50).
OUT: 1.01

IN: For the compound shown here, NC(=S)N/N=C/c1ccc(-c2ccc(O)c(C(=O)O)c2)o1 , give the reported log10(IC50).
OUT: 0.96

IN: For the compound shown here, NC(=S)N/N=C/c1cccc(-c2ccc(C(=O)O)cc2)c1 , give the reported log10(IC50).
OUT: 0.74

IN: For the compound shown here, Cc1cc([N+](=O)[O-])c(-c2ccc(/C=N/NC(=O)c3nonc3N)o2)cc1Cl , give the reported log10(IC50).
OUT: 1.40

IN: For the compound shown here, NC(=S)N/N=C/c1ccc(-c2ccc(F)nc2)o1 , give the reported log10(IC50).
OUT: 0.94
